# Test system: GBA (glucosylceramidase, GCase), L444P GBA mutation (Homo sapiens, UniProt P04062, L483P)
# Construct: Human fibroblast cell line GM10915 harboring the L444P GBA mutation was obtained from Coriell Biorepositories; host or cells: GM10915 human fibroblasts
# Sequence (P04062 40-536 L483P): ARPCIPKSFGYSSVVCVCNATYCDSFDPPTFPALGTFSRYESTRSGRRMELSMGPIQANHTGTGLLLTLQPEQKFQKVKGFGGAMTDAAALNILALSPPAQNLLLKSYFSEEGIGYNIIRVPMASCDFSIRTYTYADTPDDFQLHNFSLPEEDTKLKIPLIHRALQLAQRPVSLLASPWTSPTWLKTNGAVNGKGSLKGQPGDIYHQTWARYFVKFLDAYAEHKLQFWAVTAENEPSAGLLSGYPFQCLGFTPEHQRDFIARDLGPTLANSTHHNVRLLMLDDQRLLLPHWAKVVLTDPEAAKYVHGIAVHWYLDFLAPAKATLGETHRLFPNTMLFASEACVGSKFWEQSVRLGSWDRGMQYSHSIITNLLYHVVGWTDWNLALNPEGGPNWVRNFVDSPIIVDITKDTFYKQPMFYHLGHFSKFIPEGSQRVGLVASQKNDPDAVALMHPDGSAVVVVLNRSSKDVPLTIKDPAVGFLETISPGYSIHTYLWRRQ
# Assay comment: GCase activity assay (4-MUG) in GM10915 fibroblasts, normalised to crystal violet staining
# Assay type: cell-based
# Condition context: concentration where Percent GCase activity = 150% (1.5-fold induction); human fibroblast cell line GM10915 (L444P GBA), five days exposure, 8-point dose range
# if value of GBA EC1.5 reaches 8 µM, tag Yes; if it stays below, tag No

Worked cases, answers included:
Compound: COc1ncc(C2CCNC2)cc1CN1CCCCC1 (stereo not drawn) [compound 803]
Assigned label: No
//
Compound: c1nc(C2CCCNC2)cnc1CN1CCCCC1 (stereo not drawn) [compound 754]
Assigned label: Yes
//
Compound: c1c(C2CCNCC2)noc1CN1CCCCC1 [compound 586]
Assigned label: No
//
Compound: c1nc(C2CCNCC2)sc1CN1CCCCC1 [compound 620]
Assigned label: No
//
Compound: Cc1cc(CN2CCCCC2)nc(C2CCCNC2)c1 (stereo not drawn) [compound 732]
Assigned label: No
//
Compound: CN1CCCC(c2cc(CN3CCCCC3)ncn2)C1 (stereo not drawn) [compound 802]
Assigned label: Yes
//
Compound: CC(c1cncc(C2CCNCC2)c1)N1CCCCC1 (stereo not drawn) [compound 772]
Assigned label: Yes
//
Compound: CN1CCC(c2cccc(CN3CCCCC3)n2)C1 (stereo not drawn) [compound 798]
Assigned label: No
//
Compound: Cc1cc(CN2CCCCC2)cnc1C1CCCNC1 (stereo not drawn) [compound 758]
Assigned label: No
//
Compound: Cc1cc(CN2CCCCC2)cc(C2CCN(C)CC2)n1 [compound 795]
Assigned label: No

Determine whether this compound has GBA EC1.5 no lower than 8 µM: CN1CCCC(c2ccc(CN3CCCCC3)cn2)C1 (stereo not drawn) [compound 810]
No

Is reported GBA EC1.5 greater than or equal to 8 µM here: c1ncc(C2CCNC2)cc1CN1CCCCC1 (stereo not drawn) [compound 769]
Yes

Reference source: patent US20240390357A1
